System: Amaranthus retoflexus (AMARE)
test: Glasshouse herbicide test, pre-emergence
Format: in vivo
setup conditions: 1000 g/h, evaluated after 13 days, five point scale, second table
recorded endpoint: percentage damage caused to the plant, AMARE, PRE Application

These solved cases illustrate the format of a correct answer.
molecule: Cc1ccc(C(F)(F)F)c(C(=O)Nc2nncn2C)c1 [Compound 2.006]
experimental value: 2 (2=20-39%)
//
molecule: Cc1nnc(NC(=O)c2ccc(C(F)(F)F)cc2S(C)(=O)=O)n1C [Compound 1.009]
experimental value: 4 (4=60-79%)
//
molecule: CCc1nnc(NC(=O)c2ccc(C(F)(F)F)cc2S(C)(=O)=O)n1C [Compound 1.010]
experimental value: 1 (1=0-19%)

Here is another molecule to look at.
Give recorded percentage damage caused to the plant, AMARE, PRE Application. CCn1cnnc1NC(=O)c1ccc(C(F)(F)F)cc1S(C)(=O)=O [Compound 1.011]
5 (5=80-100%)

Data credit: patent US20150065345A1
